# TESTED ON: Peptidyl-prolyl cis-trans isomerase A (Homo sapiens, UniProt P62937)
# Sequence (P62937 whole entry): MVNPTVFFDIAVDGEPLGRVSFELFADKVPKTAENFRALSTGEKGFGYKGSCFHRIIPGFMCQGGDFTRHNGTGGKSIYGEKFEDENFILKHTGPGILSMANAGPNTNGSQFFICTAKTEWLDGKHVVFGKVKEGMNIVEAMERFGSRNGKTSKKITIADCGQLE
# RUN DESCRIPTION: Inhibition of recombinant GST-tagged CypA (unknown origin)/HCV Con1 NS5A-His interaction after 16 hrs by ELISA
pIC50: −log10 of the molar value.
READOUT LABEL: pIC50

[
  {
    "COMPOUND": "CC(=O)CC[C@H]1C(=O)N[C@@H](C(C)C)C(=O)N[C@@H](Cc2cccc(O)c2)C(=O)N2CCCC(N2)C(=O)O[C@H](/C(C)=C/C=C/C(=O)N2CCCCO2)C/C=C/C=C/[C@H](O)[C@H](C)[C@H]1O (some centres undefined)",
    "READOUT LABEL": "pIC50",
    "DATA VALUE": 6.44
  },
  {
    "COMPOUND": "CNC(=O)/C=C/C=C(\\C)[C@@H]1C/C=C/C=C/[C@H](O)[C@H](C)[C@@H](O)[C@@H](CCC(C)=O)C(=O)N[C@@H](C(C)C)C(=O)N[C@@H](Cc2cccc(O)c2)C(=O)N2CCCC(N2)C(=O)O1 (stereo in doubt)",
    "READOUT LABEL": "pIC50",
    "DATA VALUE": 6.30
  },
  {
    "COMPOUND": "CC(=O)CC[C@H]1C(=O)N[C@@H](C(C)C)C(=O)N[C@@H](Cc2cccc(O)c2)C(=O)N2CCCC(N2)C(=O)O[C@H](/C(C)=C/C=C/C(=O)Nc2cccnc2)C/C=C/C=C/[C@H](O)[C@H](C)[C@H]1O (stereo in doubt)",
    "READOUT LABEL": "pIC50",
    "DATA VALUE": 6.34
  },
  {
    "COMPOUND": "CC(=O)CC[C@H]1C(=O)N[C@@H](C(C)C)C(=O)N[C@@H](Cc2cccc(O)c2)C(=O)N2CCCC(N2)C(=O)O[C@H](/C(C)=C/C=C/C(=O)NC2CCCCC2)C/C=C/C=C/[C@H](O)[C@H](C)[C@H]1O (stereo in doubt)",
    "READOUT LABEL": "pIC50",
    "DATA VALUE": 6.35
  }
]
